Provide the recorded hERG current change (%, negative = inhibition) at 1uM for the entries that follow.
studyTarget: human ether-à-go-go-related gene (hERG) potassium channel (human, UniProt Q12809)
Sequence (Q12809 whole entry, looked up): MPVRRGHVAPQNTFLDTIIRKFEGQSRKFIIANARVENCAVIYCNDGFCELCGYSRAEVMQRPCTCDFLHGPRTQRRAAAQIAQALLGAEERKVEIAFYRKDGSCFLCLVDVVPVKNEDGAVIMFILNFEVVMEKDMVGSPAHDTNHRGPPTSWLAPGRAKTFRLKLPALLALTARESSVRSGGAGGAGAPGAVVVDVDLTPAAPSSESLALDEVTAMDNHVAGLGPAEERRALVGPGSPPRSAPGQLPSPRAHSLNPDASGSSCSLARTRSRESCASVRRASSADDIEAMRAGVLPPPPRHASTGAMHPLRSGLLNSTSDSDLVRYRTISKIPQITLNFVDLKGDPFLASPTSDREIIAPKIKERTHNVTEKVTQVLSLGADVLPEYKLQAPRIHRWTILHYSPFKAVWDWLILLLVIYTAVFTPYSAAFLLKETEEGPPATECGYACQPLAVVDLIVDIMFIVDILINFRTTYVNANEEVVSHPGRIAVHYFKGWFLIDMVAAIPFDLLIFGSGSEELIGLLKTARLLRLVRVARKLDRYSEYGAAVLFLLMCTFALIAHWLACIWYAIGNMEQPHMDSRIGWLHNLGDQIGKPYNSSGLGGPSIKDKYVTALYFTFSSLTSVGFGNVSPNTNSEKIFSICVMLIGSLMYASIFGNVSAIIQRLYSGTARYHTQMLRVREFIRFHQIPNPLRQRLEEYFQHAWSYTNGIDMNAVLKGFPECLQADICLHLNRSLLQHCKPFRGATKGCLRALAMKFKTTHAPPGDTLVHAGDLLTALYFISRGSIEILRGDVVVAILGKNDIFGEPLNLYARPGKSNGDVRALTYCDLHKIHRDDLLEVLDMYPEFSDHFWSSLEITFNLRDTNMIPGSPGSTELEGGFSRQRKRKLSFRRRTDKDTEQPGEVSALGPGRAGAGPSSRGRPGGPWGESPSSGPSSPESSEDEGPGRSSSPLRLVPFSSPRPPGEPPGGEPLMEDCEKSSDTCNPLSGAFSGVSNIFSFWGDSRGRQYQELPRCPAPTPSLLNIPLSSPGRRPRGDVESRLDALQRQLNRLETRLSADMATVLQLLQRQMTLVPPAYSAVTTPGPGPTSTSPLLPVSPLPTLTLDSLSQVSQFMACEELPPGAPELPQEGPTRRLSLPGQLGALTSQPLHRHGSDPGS
methodDescription: primary screen, population patch clamp on CHO cells stably expressing hERG; higher = less effect of the substance
The whole screen tested about 310,000 compounds, of which about 2,200 (0.71%) showed an effect of 50% or more. Effects have a minus sign here. The sample as a whole holds a higher share of strong results than the screen did.
Answers are plain numbers, in %.

CCN(CC)CCN(C(=O)C1=COCCO1)c1nc2cc(C)cc(C)c2s1.Cl; -36.7
COc1ccc(NC(=S)N2CCN(C(=O)c3ccco3)CC2)c(OC)c1; 8.24
CCCC(=O)Nc1ccccc1NC(=O)CN(C)S(=O)(=O)c1ccccc1; 9.94

Provide hERG current change (%, negative = inhibition) at 1uM values for the following items, in order.
1. CN(Cc1ccccc1)C(=O)CCc1ccccc1
2. COc1ccc(CN2CCC(C(=O)N(C)CCc3ccc(OC)c(OC)c3)CC2)c(OC)c1.O=C(O)C(=O)O
3. CCN(CC)CCN(C(=O)c1ccc([N+](=O)[O-])cc1)c1nc2c(OC)cccc2s1.Cl
4. COc1cc(C(=O)NCCOc2ccccc2)cc(OC)c1OC
5. COc1cc(C(=S)N2CCC(Cc3ccccc3)CC2)ccc1OCC(N)=O

1. 13.8
2. -18
3. -53.4
4. 16.3
5. 3.73

Batch: hERG current change (%, negative = inhibition) at 1uM for all items listed.
1. COc1cc(NC(=O)CSc2ncnc3scc(-c4ccccc4)c23)c(C(=O)O)cc1OC
2. CC1(C)Cc2cccc(OCC(=O)N3CCN(c4ccccc4)CC3)c2O1
3. COc1cc(C(C)=O)ccc1OCCCN1CCC(Cc2ccccc2)CC1.O=C(O)C(=O)O
4. COc1ccc(C(=O)ON=C2CCN(c3ccc([N+](=O)[O-])cc3)CC2)cc1
5. CC1(C)Cc2cccc(OCC(=O)N3CCN(c4ccc([N+](=O)[O-])cc4)CC3)c2O1
6. CC1CCCCN1C(=O)c1ccc(COc2ccc([N+](=O)[O-])cc2)o1 (stereo not shown)
7. O=C(ON=C1CCN(c2ccc([N+](=O)[O-])cc2)CC1)c1ccccc1

1: 11.2; 2: -2.57; 3: -82.8; 4: -57.7; 5: -51.8; 6: -18.9; 7: -26

###

studyTarget: human ether-à-go-go-related gene (hERG) potassium channel (human)
methodDescription: primary screen, population patch clamp on CHO cells stably expressing hERG; higher = less effect of the substance
About 2,200 (0.71%) of roughly 310,000 compounds showed an effect of 50% or more. Effects have a minus sign here. Shown is part of a subset that was picked to be rich in strong results.
observedProperty: hERG current change (%, negative = inhibition) at 1uM (%)
Answers are plain numbers, in %.

Past entries and their recorded results:
Cc1ccc(C(=O)c2coc3ccc(O)c(CN4CCN(C)CC4)c23)cc1; -25.5
COc1ccc(-c2coc3c(CN4CCCCC4)c(O)c(CN4CCCCC4)c(O)c3c2=O)cc1; -88
O=C(CCSc1nc2ccccc2o1)N1CCOCC1; 8.39
CC(C)Oc1ccc(CN2CCC(n3nccc3NC(=O)CCc3ccccc3)CC2)cc1; -86.3
O=C(OCC(=O)N1CCN(C(=O)c2ccco2)CC1)c1cncc(Br)c1; 6.76
CC(=O)Nc1ccc(CN2CCC(n3nccc3NC(=O)CCc3ccccc3)CC2)cc1; 11.7

Give me hERG current change (%, negative = inhibition) at 1uM for each of these molecules, listed below.
1. CCN(Cc1ccncc1)C(=O)c1cc(COc2c(F)cccc2F)on1
2. CCN(C(=O)CSc1nnc(NC2CCCCC2)s1)C1CCS(=O)(=O)C1 (centres unmarked)
3. Cc1cc(NC(=O)CCC(=O)NNC(=O)c2ccc(C(C)(C)C)cc2)no1
4. C/C(=N\Nc1nc2ccccc2[nH]1)c1cccs1

1: -8.09; 2: 2.2; 3: 6.49; 4: -0.576

Hi, could you look up hERG current change (%, negative = inhibition) at 1uM for each item in my list?
1. O=S(=O)(c1ccc2nc(-c3ccccc3)[nH]c2c1)N1CCN(c2ccc(Cl)cc2)CC1
2. O=c1c2cc(NC(=S)NCCN3CCCCCC3)ccc2nc2n1CCCCC2
3. C/C(=N\Nc1nc2ccccc2[nH]1)c1ccccn1
4. Cc1ccc(NS(=O)(=O)c2cc(NC(=O)c3cc4c(s3)CCCC4)ccc2C)c(C)c1
5. Cn1c(CC(=O)Nc2ccc(Cl)c(Cl)c2)nnc1SCC(=O)NCc1ccccc1
6. CCN(Cc1ccncc1)C(=O)c1cc(COc2ccc(C)c(C)c2)on1
7. COc1ccc(-c2coc3c(CN4CCCCC4C)c(O)ccc3c2=O)cc1 (centres unmarked)
8. COc1ccc(C(=O)c2coc3ccc(O)c(CN4CCOCC4)c23)cc1

5.61
7.57
-55.5
7.78
9.85
-5.56
7.15
1.63

Would you be so kind as to report hERG current change (%, negative = inhibition) at 1uM for each listed record?
1. COc1ccc(C(=O)c2coc3ccc(O)c(CN4CCCC4)c23)cc1
2. Cc1ccc(S(=O)(=O)NCc2ccc(C(=O)NCCCN3CCC(Cc4ccccc4)CC3)cc2)cc1

[-56.9, -52.4]
